# TEST TARGET: T1, human SIRPα v1 on CHOK1 cells (human, UniProt P78324 31-504)
# T1 construct: whole, on cells; also called CHOK1-hSIRPα v1; cell surface human SIRPα v1
# T1 sequence (P78324 31-504): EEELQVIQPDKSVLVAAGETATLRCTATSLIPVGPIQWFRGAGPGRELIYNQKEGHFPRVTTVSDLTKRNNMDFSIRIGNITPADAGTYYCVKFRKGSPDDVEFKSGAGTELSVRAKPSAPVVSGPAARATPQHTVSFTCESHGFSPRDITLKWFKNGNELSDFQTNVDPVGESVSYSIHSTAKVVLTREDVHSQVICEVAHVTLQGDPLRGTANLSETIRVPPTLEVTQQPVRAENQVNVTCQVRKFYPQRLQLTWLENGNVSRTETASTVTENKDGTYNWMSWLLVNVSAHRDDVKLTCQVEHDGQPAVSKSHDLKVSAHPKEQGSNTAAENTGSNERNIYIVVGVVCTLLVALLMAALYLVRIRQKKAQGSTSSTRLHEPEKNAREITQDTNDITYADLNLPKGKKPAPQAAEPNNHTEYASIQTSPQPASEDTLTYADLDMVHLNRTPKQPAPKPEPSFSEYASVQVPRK
# PROTOCOL DETAILS: FACS, CHOK1 cells stably expressing human SIRPα v1
Answer each item with its documented TOP MFI.
# unit: MFI | format: bare number

Query block: Any idea what TOP MFI was measured for Humanized anti-SIRPα antibody hu025.021 (antibody, V domains shown, Humanized from C25) VH: EVQLVQSGAEVKKPGATVKISCKVSGFNIKDYYMHWVQQAPGKGLEWIGRIDPEDAETKYAPKFQGRVTITADTSTNTAYMELSSLRSEDTAVYYCDRGLAYWGQGTLVTVSS VL: EIVLTQSPATLSLSPGERATLSCSASSSVSSSYLYWYQQKPGQAPKLWIYSTSNLASGIPARFSGSGSGTDYTLTISSLEPEDFAVYYCHQWSSYPYTFGQGTKLEIK ?
Result block: 56400

Query block: Name the reported TOP MFI value associated with the binder Anti-SIRPα antibody C25 (antibody, V domains shown, Mouse variable regions; also called 025c; 025) VH: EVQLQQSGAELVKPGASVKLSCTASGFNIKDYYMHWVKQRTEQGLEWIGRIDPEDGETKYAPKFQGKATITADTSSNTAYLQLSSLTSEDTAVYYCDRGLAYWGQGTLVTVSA VL: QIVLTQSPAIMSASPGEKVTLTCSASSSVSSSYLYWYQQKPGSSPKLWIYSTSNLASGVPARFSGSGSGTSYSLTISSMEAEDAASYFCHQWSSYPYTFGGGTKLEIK
Result block: 64700

Query block: Quick one: TOP MFI for Humanized anti-SIRPα antibody hu025.059 (antibody, V domains shown, Humanized from C25) VH: EVQLVQSGAEVKKPGATVKISCKASGFNIKDYYMHWVQQAPGKGLEWIGRIDPEDAETKYAPKFQGRVTITADTSTNTAYMELSSLRSEDTAVYYCDRGLAYWGQGTLVTVSS VL: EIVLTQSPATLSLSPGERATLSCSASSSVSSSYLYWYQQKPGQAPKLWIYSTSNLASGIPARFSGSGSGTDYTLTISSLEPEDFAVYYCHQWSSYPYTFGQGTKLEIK ?
Result block: 59400
